These measurements were taken from PubChem BioAssay AID835.

target: Ephrin type-B receptor 4 (Homo sapiens) (UniProt P54760); assay: EphB4-ephrin-B2 interaction antagonists, dose response, biochemical, TNYL-RAW peptide displacement (AID 835)
Sequence (P54760 whole entry, looked up): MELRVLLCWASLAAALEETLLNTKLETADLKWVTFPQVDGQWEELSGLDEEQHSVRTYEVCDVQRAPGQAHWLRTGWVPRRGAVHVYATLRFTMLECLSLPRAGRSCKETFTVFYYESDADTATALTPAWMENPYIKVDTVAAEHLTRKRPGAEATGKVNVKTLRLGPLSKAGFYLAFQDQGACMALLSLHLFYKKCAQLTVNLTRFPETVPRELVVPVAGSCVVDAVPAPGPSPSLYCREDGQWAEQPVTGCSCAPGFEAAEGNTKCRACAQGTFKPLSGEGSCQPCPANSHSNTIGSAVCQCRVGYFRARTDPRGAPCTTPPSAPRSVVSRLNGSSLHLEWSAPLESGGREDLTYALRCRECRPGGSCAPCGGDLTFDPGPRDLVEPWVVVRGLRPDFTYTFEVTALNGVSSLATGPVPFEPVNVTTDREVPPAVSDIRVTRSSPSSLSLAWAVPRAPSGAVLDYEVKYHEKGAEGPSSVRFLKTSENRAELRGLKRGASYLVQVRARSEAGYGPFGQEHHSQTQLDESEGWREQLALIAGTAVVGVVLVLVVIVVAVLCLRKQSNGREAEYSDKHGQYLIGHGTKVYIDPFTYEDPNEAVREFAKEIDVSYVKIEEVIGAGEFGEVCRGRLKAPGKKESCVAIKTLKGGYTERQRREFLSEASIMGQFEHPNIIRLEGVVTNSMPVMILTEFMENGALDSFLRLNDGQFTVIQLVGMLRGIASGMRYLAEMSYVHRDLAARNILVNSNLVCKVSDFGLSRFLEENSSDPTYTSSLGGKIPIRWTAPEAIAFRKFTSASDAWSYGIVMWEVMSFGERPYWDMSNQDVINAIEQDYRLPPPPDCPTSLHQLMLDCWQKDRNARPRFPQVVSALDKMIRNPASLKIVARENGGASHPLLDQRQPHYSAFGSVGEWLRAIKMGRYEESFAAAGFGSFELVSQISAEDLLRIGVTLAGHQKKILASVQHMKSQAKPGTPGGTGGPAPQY
Calls of active or inactive are those of the source. The rule behind the calls is not given here.
A collection of compounds and their measured IC50

compound	IC50
CCCc1[nH]nc2c1C(c1ccc(OC)c(Cn3nnc4ccccc43)c1)C(C#N)=C(N)O2 (stereo not drawn)	> 79.4 µM (inactive)
CCOC(=O)C1=C(c2ccccc2)N2CCS(=O)(=O)N=C2S1	> 79.4 µM (inactive)
CC1=Nc2ccccc2/C1=C\c1nc(-c2ccc(C(F)(F)F)cc2)oc1O	> 79.4 µM (inactive)
